experiment: Plasma and brain 4R concentrations and pharmacokinetics in male rats; assay type: in vivo, Sprague-Dawley rat; settings: male, Sprague-Dawley, rat, plasma, sc, 6 mg/kg, 6 mg/kg s.c., male rats; read-out: t1/2 (converted)

# molecule, half-life
rows = [
    ("C/C1=C\\[C@H](O)C[C@@](C)(O)/C=C/C(C(C)C)CC/C(C)=C/CC1 (stereo partly shown)", "~1.5 h"),
]

====

assay: Plasma and brain 4R concentrations and pharmacokinetics in male rats; type: in vivo, Sprague-Dawley rat; settings: male, Sprague-Dawley, rat, plasma, subcutaneous; 6 mg/kg s.c., AUCinf relative to i.v.; read-out: F (bioavailability)
measuredQuantity: bioavailability

# molecule, measuredQuantity, observedValue
records = [
    ("C/C1=C\\[C@H](O)C[C@@](C)(O)/C=C/C(C(C)C)CC/C(C)=C/CC1 (stereo partly shown) [4R]", "bioavailability", "41%"),
]

Numbers sourced from paper PMC4374761.
